EXPERIMENTAL_SYSTEM: SARS2 protease (Severe acute respiratory syndrome coronavirus 2)
Construct: SARS2 protease was added to a final concentration of 30 nM
ASSAY_NOTES: SARS-CoV-2 protease inhibition assay (SARS2 FRET protease assay)
Type: biochemical
SETTINGS: IC50 (μM), SARS2 protease 30 nM, peptide substrate 1.3 μM, 120 minutes at 37° C., compounds 20 μM to 0.075 nM
Returns: string. Value is Yes if measured IC50 is below 0.3 µM, and No if it is greater than or equal to it.

Lab note: confirm whether the reported IC50 for this compound is below 0.3 µM, equality not counting. compound: O=C[C@H](C[C@@H]1CCNC1=O)NC(=O)[C@H](CC1CC1)NC(=O)O[C@@H](c1ccccc1)C(F)(F)c1cccc(Cl)c1 Yes

For CC(C)C[C@H](NC(=O)OC(c1ccccc1)C(C)(C)c1cccc(F)c1)C(=O)NC(C)(C=O)C[C@@H]1CCNC1=O (stereo partly drawn) then? No

Further, for CCNC(=O)C(=O)[C@H](C[C@@H]1CCNC1=O)NC(=O)[C@H](Cc1ccccc1)NC(=O)OCCCc1ccccc1 ? No

Next: CCCC[C@H](NC(=O)OC(c1ccccc1)C(C)(C)c1cccc(F)c1)C(=O)N[C@@H](C[C@@H]1CCNC1=O)C(=O)C(=O)NC1CC1 (stereo partly drawn) Yes

Request: CC(C)C[C@H](NC(=O)O[C@@H](c1cccc(Cl)c1)C(C)(C)c1cccc(Cl)c1)C(=O)N[C@@H](C[C@@H]1CCNC1=O)C(=O)C(=O)NC1CC1 Yes

Try this compound too: CCNC(=O)C(=O)[C@H](C[C@H]1CCNC1=O)NC(=O)[C@H](CC(C)C)NC(=O)OC(c1ccccc1)C(F)(F)c1cccc(Cl)c1 (stereo partly drawn) No
